Biological target: GluA2/3 (UniProt P19491+P42263)
Construct: expressed in transfected cells; host or cells: HEK293T (HEK293) cells, transient co-transfection
Sequence (P19491 22-883 isoform P19491-2 limits assumed): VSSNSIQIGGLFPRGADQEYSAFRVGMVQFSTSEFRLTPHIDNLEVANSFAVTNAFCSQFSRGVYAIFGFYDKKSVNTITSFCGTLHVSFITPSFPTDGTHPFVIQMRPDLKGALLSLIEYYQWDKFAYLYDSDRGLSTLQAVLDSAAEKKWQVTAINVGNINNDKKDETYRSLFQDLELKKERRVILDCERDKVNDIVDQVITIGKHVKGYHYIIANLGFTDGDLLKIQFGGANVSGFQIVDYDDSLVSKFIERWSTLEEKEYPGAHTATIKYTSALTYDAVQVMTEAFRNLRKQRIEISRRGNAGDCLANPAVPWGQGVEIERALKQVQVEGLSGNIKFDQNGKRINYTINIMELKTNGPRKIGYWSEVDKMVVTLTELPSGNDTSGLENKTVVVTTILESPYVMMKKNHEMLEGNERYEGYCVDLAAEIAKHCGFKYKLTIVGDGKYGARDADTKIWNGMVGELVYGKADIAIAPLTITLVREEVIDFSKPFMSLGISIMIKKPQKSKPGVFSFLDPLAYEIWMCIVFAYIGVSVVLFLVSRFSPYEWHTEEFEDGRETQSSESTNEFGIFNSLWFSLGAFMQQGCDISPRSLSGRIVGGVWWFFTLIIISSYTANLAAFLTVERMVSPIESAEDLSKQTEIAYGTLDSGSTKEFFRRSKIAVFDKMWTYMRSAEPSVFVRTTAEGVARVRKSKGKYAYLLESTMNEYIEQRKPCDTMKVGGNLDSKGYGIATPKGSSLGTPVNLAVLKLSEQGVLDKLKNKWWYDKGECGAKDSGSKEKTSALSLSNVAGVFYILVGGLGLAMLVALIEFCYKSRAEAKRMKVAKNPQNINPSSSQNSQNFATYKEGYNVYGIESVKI
Sequence (P42263 29-894 isoform P42263-2 limits assumed): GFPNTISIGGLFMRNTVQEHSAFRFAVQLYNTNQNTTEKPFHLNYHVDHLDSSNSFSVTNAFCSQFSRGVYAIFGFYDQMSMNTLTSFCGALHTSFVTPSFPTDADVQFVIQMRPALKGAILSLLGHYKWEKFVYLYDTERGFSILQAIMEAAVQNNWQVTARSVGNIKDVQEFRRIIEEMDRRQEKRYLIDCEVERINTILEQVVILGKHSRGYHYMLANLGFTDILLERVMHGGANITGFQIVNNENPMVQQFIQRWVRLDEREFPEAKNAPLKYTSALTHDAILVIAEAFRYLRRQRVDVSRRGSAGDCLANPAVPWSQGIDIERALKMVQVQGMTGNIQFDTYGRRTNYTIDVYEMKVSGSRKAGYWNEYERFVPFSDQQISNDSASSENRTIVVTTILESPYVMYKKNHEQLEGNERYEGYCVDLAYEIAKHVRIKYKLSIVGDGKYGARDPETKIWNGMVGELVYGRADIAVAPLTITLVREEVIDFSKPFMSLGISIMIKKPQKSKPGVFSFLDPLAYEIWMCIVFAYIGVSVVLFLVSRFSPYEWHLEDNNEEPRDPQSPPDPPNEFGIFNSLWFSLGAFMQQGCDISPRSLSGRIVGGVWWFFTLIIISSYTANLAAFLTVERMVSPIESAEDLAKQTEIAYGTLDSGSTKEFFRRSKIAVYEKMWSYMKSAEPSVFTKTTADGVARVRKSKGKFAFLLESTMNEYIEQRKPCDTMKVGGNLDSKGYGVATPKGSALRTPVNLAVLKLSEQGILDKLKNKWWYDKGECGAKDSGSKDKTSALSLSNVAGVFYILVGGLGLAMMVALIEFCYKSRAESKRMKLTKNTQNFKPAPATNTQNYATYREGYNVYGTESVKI
Test: Whole-cell patch clamp recordings of heteromeric GluA2/3 AMPA receptor currents and kinetics in transfected HEK293t cells
Assay type: cell-based
Conditions: 16 µM compound, mean ± SD, n = 10
RECORDED_METRIC: A/AI (amplitude ratio, glutamate alone / with compound)
Answer as a number with no unit attached.

Here are 3 molecules together with their reported answers.
| STRUCTURE_SMILES_STRING | TEST_SYSTEM | RECORDED_VALUE |
| --- | --- | --- |
| COc1cc(NC(=O)c2c(-c3c(Cl)cccc3Cl)noc2C)cc(OC)c1 | GluA2/3 (UniProt P19491+P42263) | 5.50 |
| Cc1onc(-c2c(Cl)cccc2Cl)c1C(=O)Nc1ccc(C(C)(C)C)cc1 | GluA2/3 (UniProt P19491+P42263) | 3.01 |
| CSc1ccc(NC(=O)c2c(-c3c(Cl)cccc3Cl)noc2C)cc1 | GluA2/3 (UniProt P19491+P42263) | 8.02 |

GET /value?item= COc1ccc(NC(=O)c2c(-c3c(Cl)cccc3Cl)noc2C)cc1OC &field=A/AI (amplitude ratio, glutamate alone / with compound) returns 4.76

GET /value?item= COc1cc(NC(=O)c2c(-c3c(Cl)cccc3Cl)noc2C)cc(OC)c1OC &field=A/AI (amplitude ratio, glutamate alone / with compound) returns 4.97

GET /value?item= COc1ccccc1Oc1ccc(NC(=O)c2c(-c3c(Cl)cccc3Cl)noc2C)cc1 &field=A/AI (amplitude ratio, glutamate alone / with compound) returns 4.49

GET /value?item= Cc1onc(-c2c(Cl)cccc2Cl)c1C(=O)Nc1ccc(-c2ccccc2)cc1 &field=A/AI (amplitude ratio, glutamate alone / with compound) returns 4.01

GET /value?item= Cc1onc(-c2c(F)cccc2Cl)c1C(=O)Nc1ccc(OC(F)(F)F)cc1 &field=A/AI (amplitude ratio, glutamate alone / with compound) returns 3.46
